Test system: Wolbachia pipientis
Assay: Anti-Wolbachia Cell-Based Screen
Format: functional
Set-up: scale not given: in the data most compounds retested in dose-response had high values
Conditions: 5 µM
Hit rate of the full screen: of about 48,000 compounds, about 13,000 (27%) showed an effect of 50% or more. Some of the results follow.
Listing of recorded Percent Effect by entry.
Kindly answer with a numeric value in %, unit omitted.

Give the measured Percent Effect of COCCN1CC2(CCCN(C(=O)NCc3ccccc3)C2)CCC1=O (configuration not stated) .
-41.75

Same for Cc1ccc(C(C(=O)NC(C)(C)CN2CCCC2)N(C)C)cc1 (configuration not stated)
96.39

Same for O=C(CN1C(=O)CCNC1=O)N1CCC2(CCc3ccccc32)CC1
-1.469

Same for Cc1cccc(C(C(=O)NCCn2cccc2)N(C)C)c1 (configuration not stated)
-2.901

Same for COCCN1CCc2ccccc2NCCC1=O
80.29

Same for CN(CCc1ccccn1)[C@@H]1CCN(c2cccc(C#N)n2)C[C@H]1O
16.97

Same for CS(=O)(=O)N1CCN(c2ccnc(N3CCCCC3)n2)CC1
0.3412

Same for CCSCCNC(=O)C(c1cccc(C)c1)N(C)C (configuration not stated)
-29.39

Same for COCCN1CCC2(CCC1=O)CN(c1ccnc(SC)n1)CCN2C (configuration not stated)
3.783

Same for CC(C)(C)C(=O)CN1CCc2ccccc2NCCC1=O
91.03

Same for CCN(C(=O)C1=NN(c2ccccc2)C(=O)CN1)c1ccccc1
14.38

Same for CS(=O)(=O)N1CCN(c2ccnc(N3CCCC3)n2)CC1
-2.838

---

Listing of recorded Percent Effect by entry.
Tested on: Wolbachia pipientis
Test: Anti-Wolbachia Cell-Based Screen
Type: functional
Design: scale not given: in the data most compounds retested in dose-response had high values
Conditions: 5 µM
Among all 48,000 compounds or so, about 13,000 (27%) showed an effect of 50% or more. The list shows a part of the results.
Kindly answer with a numeric value in %, unit omitted.

// below: answered molecules
>>> recordednumber("O=C(c1ccno1)N1C[C@@H](F)[C@@H](OCc2nc3ccccc3o2)C1")
6.473
>>> recordednumber("Cc1noc(C)c1CNC(=O)N1Cc2ccccc2N(C)CC1C (stereo unspecified)")
7.877

# query: Percent Effect | item CCc1oc(C(=O)N2CC[C@H]3CC[C@@H](C2)N3)cc1CN(CC)CC | system: Wolbachia pipientis
112

Same for COCCNC(=O)c1sc(Nc2ccc(Cl)cn2)nc1C
19.38

Same for CC(C)c1nc(CSc2nnc(Cn3cncn3)o2)cs1
-8.133

Same for COc1c(CNCCNC(=O)Cc2ccc(F)cc2)c(C)nn1C
-0.8821

---

Test system: Wolbachia pipientis
Assay: Anti-Wolbachia Cell-Based Screen
Format: functional
Design: scale not given: in the data most compounds retested in dose-response had high values
Details: 5 µM
In all, about 48,000 compounds went through this assay and about 13,000 (27%) showed an effect of 50% or more. Some of the results follow.
valueKind: Percent Effect (%)
Kindly answer with a numeric value in %, unit omitted.

// below: answered molecules
>>> recordednumber("CCC(C)(C)NC(=O)CSCc1ccc(S(=O)(=O)N(C)C)o1")
5.588
>>> recordednumber("CC(C)(C)CC(=O)N1[C@@H](c2ccco2)[C@@H](CO)C[C@]12CCCCNC2=O")
102.1
>>> recordednumber("O=C(c1ccc(C(F)(F)F)nc1)N1CCCC(n2cncn2)C1 (stereo unspecified)")
-5.926
>>> recordednumber("CC(C)CCC(=O)NCC(=O)N1CCCCCC1c1ccco1 (stereo unspecified)")
14.42

Give the measured Percent Effect of CCN(CC)CCn1ccnc1-c1cccc(O)c1 .
9.33

Same for Cn1ccc(C(=O)N2CCC(Cc3cccc4ncccc34)C2)n1 (stereo unspecified)
142.2

Same for CCOc1cc(C(=O)N2CCCC(n3cncn3)C2)ccc1C (stereo unspecified)
31.02

Same for O=C(c1ccccc1OC1CCCC1)N1CCCC(n2cncn2)C1 (stereo unspecified)
131.9

Same for O=C(c1ccncc1)N1CCc2ncnc(C3CCOC3)c2CC1 (stereo unspecified)
1.428

Same for CC(C)n1ccnc1C1CCN(C(=O)c2ccc(SCCO)cc2)CC1
-4.655

Same for CCc1[nH]ncc1C(=O)N1CCN(c2nccc(OC)n2)CC1
-7.097

---

Test system: Wolbachia pipientis
Assay: Anti-Wolbachia Cell-Based Screen
Type: functional
Design: scale not given: in the data most compounds retested in dose-response had high values
Settings: 5 µM
Hit rate of the full screen: of about 48,000 compounds, about 13,000 (27%) showed an effect of 50% or more. Some of the results follow.
Listing of recorded Percent Effect by entry.

>>> result("O=C(Cc1c[nH]c(=O)[nH]c1=O)N1CCCCC1CCc1ccccc1 (stereo unspecified)")
"-18.96%"

Give the measured Percent Effect of Cc1ccc(CN2CCC[C@@H]3CN(C(=O)c4ccco4)C[C@@H]32)o1.O=C(O)C(F)(F)F .
-0.1922%

Same for CNC(=O)c1cccc(CNC(C)c2cc(C)ccc2OC(F)F)c1 (stereo unspecified)
2.562%

Same for O=c1[nH]cc(N2CCOCC2)c(=O)[nH]1
76.31%

Same for Cn1cnc2c1CCN(C(C(=O)N1CCCCC1)c1ccccc1)C2 (stereo unspecified)
18.33%

Same for O=c1[nH]cc(N2CCCCC2)c(=O)[nH]1
67.95%

Same for Cn1ncc(N2CCOCC2)c(Cl)c1=O
6.365%

Same for Cc1nc2cc(=O)[nH]n2c(C)c1CNC(=O)C(C)(C)c1ccccc1
-10.11%

Same for N#Cc1ccc(OCCCN2CCc3cncnc3C2)cc1
-6.561%

Same for Cc1ccc(Cl)c(NC(=O)c2cccc(CN3CC[C@H](O)C3)c2)c1
25.72%

Same for Cc1noc(C)c1CN1C[C@@H]2CC[C@H](C1)N(Cc1cc(F)cc(F)c1)C2
3.369%

---

System: Wolbachia pipientis
Assay: Anti-Wolbachia Cell-Based Screen
Type: functional
Set-up: scale not given: in the data most compounds retested in dose-response had high values
Conditions: 5 µM
Screen size: about 48,000 compounds; about 13,000 (27%) showed an effect of 50% or more. This is one part of the list.
Listing of recorded Percent Effect by entry.
Kindly answer with a numeric value in %, unit omitted.

// below: answered compounds
>>> recordednumber("CC1CN(Cc2cnn(C)c2)CCN1c1ccc2nncn2n1 (stereo not drawn)")
114.2
>>> recordednumber("O=C(CCNC(=O)c1ccoc1)Nc1c(F)cccc1F")
-2.292
>>> recordednumber("N#Cc1cc2c(nc1SCc1cc(O)nc(O)n1)CCCCC2")
128.9
>>> recordednumber("COc1ccccc1CC(C)(C)NC(=O)CNS(C)(=O)=O")
-9.621
>>> recordednumber("COc1cccc2c1OCC(C(=O)N1CCC(N3CCSCC3)CC1)C2 (stereo not drawn)")
-10.16

Give the measured Percent Effect of Cc1occc1C(=O)NCC(=O)N1CCCC(c2ccccc2)CC1 (stereo not drawn) .
4.823

Same for CC(C)Cc1nc(CS(C)(=O)=O)n(-c2ccccn2)n1
-36.43

Same for CC1N(CC2CC2)C(=O)COC12CCN(Cc1nccs1)CC2.O=C(O)C(F)(F)F (stereo not drawn)
-4.952

Same for O=C(c1cccnc1O)N(Cc1cccs1)CC1CCCO1 (stereo not drawn)
-28.97

---

Test system: Wolbachia pipientis
Assay: Anti-Wolbachia Cell-Based Screen
Type: functional
Set-up: scale not given: in the data most compounds retested in dose-response had high values
Details: 5 µM
The whole screen tested about 48,000 compounds, of which about 13,000 (27%) showed an effect of 50% or more. Some of the results follow.
valueKind: Percent Effect (%)
Kindly answer with a numeric value in %, unit omitted.

// below: answered compounds
>>> recordednumber("COCC(=O)N(C)Cc1ccc(OCc2cccs2)cc1")
1.693
>>> recordednumber("CC(=O)N1N=C(c2ccco2)OC1C(=O)NCCc1ccc(O)cc1 (centres undefined)")
112.2
>>> recordednumber("CC(=O)N1N=C(c2ccco2)OC1C(=O)NCCc1ccc(F)cc1 (centres undefined)")
117.3
>>> recordednumber("CSc1cccc(CC(=O)N[C@@H]2CCNC[C@H]2O)c1")
-1.267

Give the measured Percent Effect of C[C@@H]1CN(C(=O)CCc2nncn2C)CC[C@@]1(O)C1CCC1 .
-5.246

Same for Cc1nccn1CCC1CCN(C2CCC3(CCNCC3)CC2)CC1
84.73

Same for CCC(=O)N(CCN(C)C)Cc1ccc(F)c(F)c1
182.8

Same for CC(Cn1ccnc1)NC1CCN(Cc2cccc(O)c2)CC1 (centres undefined)
-6.042

Same for CC(C)COCCC(=O)Nc1c(-c2ccc(F)cc2)ncn1C
34.39

Same for COc1ccc(F)c(CN2CCCC3(CCN(C4CCOCC4)C3)C2)c1 (centres undefined)
-3.304

Same for CN(Cc1ccc(F)c(F)c1)C(=O)CCc1nc(-c2nnc[nH]2)no1
-9.092

Same for Cc1nccn1CCC1CCN(C(=O)C2CC3(CCNCC3)CN2)CC1 (centres undefined)
104.8

Same for Cc1nccn1CCC1CCN(c2ncccn2)CC1
-9.43

Same for Cc1cc(-c2cnn(CCNC(=O)CCn3cccn3)c2C2CC2)on1
139.3

Same for Cc1noc(CCCC(=O)N(CCC(=O)O)Cc2ccc(F)c(F)c2)n1
101.8
